Tested on: SK-MEL-5
Test: NCI tumour cell line growth inhibition, 48 h
Calls of active or inactive are those of the source. No stated cut-off is given here; in the data, active = GI50 up to about 1.1 µM and inactive = higher.
Response enum: active, inactive

Input line: Check the results log: what was the call for COc1cccc2cc(C(=O)NC34CC5CC(CC(C5)C3)C4)c(=N)oc12 ?
Output line: inactive

Input line: And the next one, Cc1ccccc1C(=O)c1c(O)c2c(c(O)c1Br)CCCC2 ?
Output line: inactive

Input line: And the next one, O=C1Nc2ccc(Br)cc2/C1=N/Nc1ccc([N+](=O)[O-])cc1 ?
Output line: inactive

Input line: And the next one, O=C(Cc1ccccc1)Oc1ccc2c(-c3ccccc3)c(C(=O)Nc3ccc(Cl)cc3)c(=O)oc2c1 ?
Output line: inactive

Input line: And the next one, CCCCNC(=O)C1C2CCC(O2)C1C(=O)O (configuration not stated) ?
Output line: inactive

Input line: And the next one, O=C1c2c(O)cccc2Cc2cccc(O)c21 [ANTHRALIN] ?
Output line: active

Input line: And the next one, Cn1c(N)c(/C=C/C(=O)Oc2ccccc2)c(=O)n(C)c1=O ?
Output line: inactive

Input line: And the next one, COC(=O)CNC(=O)Nc1cc(N2C(=O)ON3C2C(C)(C)N(O)C3(C)C)ccc1C (configuration not stated) ?
Output line: inactive

Input line: And the next one, CCOC(=O)C(NC(=O)CC)(Nc1ccc(S(=O)(=O)Nc2onc(C)c2C)cc1)C(F)(F)F (configuration not stated) ?
Output line: inactive

Input line: And the next one, O=C(NCCCNCCN1C(=O)c2cccc3cc([N+](=O)[O-])cc(c23)C1=O)c1cc(-c2ccccc2)nc2ccccc12 ?
Output line: inactive

Input line: And the next one, CCCN(CCC)C(=S)N/N=C/c1ccccn1 ?
Output line: active

Input line: And the next one, COc1ccc(-c2nc(SCC(=O)N/N=C/c3ccc(O)c(OC)c3)[nH]c2-c2ccc(OC)cc2)cc1 ?
Output line: inactive

Input line: And the next one, CN1CCN(CCCN)CC1 ?
Output line: inactive

Input line: And the next one, N/C(=N\Nc1nc2cc([N+](=O)[O-])ccc2o1)c1ccccn1 ?
Output line: active

Input line: And the next one, O=C(Cc1ccc([N+](=O)[O-])c([N+](=O)[O-])c1CC(=O)C(=O)Nc1cc(Cl)ccc1Cl)C(=O)Nc1cc(Cl)ccc1Cl ?
Output line: inactive

Input line: And the next one, NC(CO)c1ccc(OCc2ccccc2)cc1 (configuration not stated) ?
Output line: inactive

Input line: And the next one, CC1(c2cccc(Cl)c2)CC(c2cccc(Cl)c2)=C(C#N)C(=C(C#N)C#N)N1 (configuration not stated) ?
Output line: inactive

Input line: And the next one, COc1ccccc1NC(=O)C(C#N)=C(SC)SC ?
Output line: inactive

Input line: And the next one, O=C1CNc2cc(N3CCOCC3)ccc2N1 ?
Output line: inactive

Input line: And the next one, COC(=O)C1=C(C)NC(C)=C(C(=O)OC)C1c1ccccc1NO ?
Output line: inactive

Input line: And the next one, O=C(O)COc1ccc(O)c2c1C(=O)CCCC2=O ?
Output line: inactive

Input line: And the next one, COc1ccccc1CNCCCCCNCCCCCCCCCCNCCCCCNCc1ccccc1OC ?
Output line: inactive
